Test system: K24384-001-R-PDC complex spheroids, viability
Assay: Anticancer human tumor K24384-001-R-PDC patient-derived pancreatic adenocarcinoma cell line growth inhibition [GQUAD]
Settings: second compound 10 µM; first compound 1 µM; stronger effect = lower value
Text: DNA G-quadruplex Stabilizer Agents in Combinations in Complex Spheroids A high-throughput screen of multi-cell type tumor spheroids was designed to identify active combinations of DNA G-quadruplex stabilizer agents and targeted small molecules. […] Compounds. […] If the clinical Cmax for an agent had not been determined, the highest concentration tested was 10 microM. […]
metric: viability, T/C

[[record]]
compound = "CC1COCCN1c1cc(C2(S(C)(=N)=O)CC2)nc(-c2ccnc3[nH]ccc23)n1 (stereo unspecified) + Cc1[nH]c2ccc(F)cc2c1-c1nc2c3cccnc3c3ncccc3c2[nH]1"
test_result = "54.3%"

[[record]]
compound = "COc1cccc2c1C(=O)c1c(O)c3c(c(O)c1C2=O)CC(O)(C(=O)CO)CC3OC1CC(N)C(O)C(C)O1 (stereo unspecified) + Cc1[nH]c2ccc(F)cc2c1-c1nc2c3cccnc3c3ncccc3c2[nH]1"
test_result = "20%"

[[record]]
compound = "CC1COCCN1c1cc(C2(O)CC3CCC(C2)O3)c2cnn(-c3ccn[nH]3)c2n1 (stereo unspecified) + Cc1cnc(CNC(=O)c2c(=O)c3ccc(N4CCCN(C)CC4)nc3n3c2sc2ccccc23)cn1"
test_result = "19.4%"


Look up and state reported viability, T/C for Cc1cccc(N(C)C(=O)C2C(O)CCN2c2nc(C)cc(C(F)(F)F)c2C#N)c1 (stereo unspecified) + CN(C)c1ccc(Nc2c3ccc(NC(=O)CCN4CCCC4)cc3nc3cc(NC(=O)CCN4CCCC4)ccc23)cc1
61.8%

Look up and state reported viability, T/C for CC1COCCN1c1cc(C2(S(C)(=N)=O)CC2)nc(-c2ccnc3[nH]ccc23)n1 (stereo unspecified) + Cc1cnc(CNC(=O)c2c(=O)c3ccc(N4CCCN(C)CC4)nc3n3c2sc2ccccc23)cn1
35.2%

Look up and state reported viability, T/C for COc1cccc2c1C(=O)c1c(O)c3c(c(O)c1C2=O)CC(O)(C(=O)CO)CC3OC1CC(N)C(O)C(C)O1 (stereo unspecified) + CN(C)c1ccc(Nc2c3ccc(NC(=O)CCN4CCCC4)cc3nc3cc(NC(=O)CCN4CCCC4)ccc23)cc1
35%

Look up and state reported viability, T/C for CC(C)n1c(=O)n(C)c2cnc3cc(F)c(-c4ccc(OCCCN5CCCCC5)nc4)cc3c21 + CN(C)c1ccc(Nc2c3ccc(NC(=O)CCN4CCCC4)cc3nc3cc(NC(=O)CCN4CCCC4)ccc23)cc1
44.7%

Look up and state reported viability, T/C for C=CCn1c(=O)c2cnc(Nc3ccc(N4CCN(C)CC4)cc3)nc2n1-c1cccc(C(C)(C)O)n1 + Cc1[nH]c2ccc(F)cc2c1-c1nc2c3cccnc3c3ncccc3c2[nH]1
16.3%

###

Quick reference for pIC50 among some compounds
Tested on: K24384-001-R-PDC complex spheroids, viability
Experiment: Anticancer human tumor K24384-001-R-PDC cell line growth inhibition [GQUAD];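 further: spheroids exposed to compounds for seven days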
Conditions: curve of first compound; second compound 0.1 µM
Friendly reminder that pIC50 comes from taking -log10 of the concentration in mol/L.

[[record]]
compound = "CC1COCCN1c1cc(C2(S(C)(=N)=O)CC2)nc(-c2ccnc3[nH]ccc23)n1 (stereo not drawn) + Cc1cnc(CNC(=O)c2c(=O)c3ccc(N4CCCN(C)CC4)nc3n3c2sc2ccccc23)cn1"
test_result = 5.66


State, for K24384-001-R-PDC complex spheroids, viability, measured pIC50 of the compound listed here: C=CCn1c(=O)c2cnc(Nc3ccc(N4CCN(C)CC4)cc3)nc2n1-c1cccc(C(C)(C)O)n1 + CN(C)c1ccc(Nc2c3ccc(NC(=O)CCN4CCCC4)cc3nc3cc(NC(=O)CCN4CCCC4)ccc23)cc1
6.58

###

Test system: K24384-001-R-PDC complex spheroids, viability
Test: Anticancer human tumor K24384-001-R-PDC cell line growth inhibition [GQUAD];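 further: spheroids exposed to compounds for seven days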
Details: second compound 0.1 µM; first compound 0.316 µM; stronger effect = lower value
Mark MET for viability, T/C under 60%, NOT MET if at or over.

Does Cc1[nH]c2ccccc2c1CCNCc1ccc(/C=C/C(=O)NO)cc1 + Cc1cnc(CNC(=O)c2c(=O)c3ccc(N4CCCN(C)CC4)nc3n3c2sc2ccccc23)cn1 have viability, T/C strictly under 60%?
MET

Does COc1cccc2c1C(=O)c1c(O)c3c(c(O)c1C2=O)CC(O)(C(=O)CO)CC3OC1CC(N)C(O)C(C)O1 (stereo not given) + Cc1cnc(CNC(=O)c2c(=O)c3ccc(N4CCCN(C)CC4)nc3n3c2sc2ccccc23)cn1 have viability, T/C strictly under 60%?
MET

Does COc1cc(C2c3cc4c(cc3C(OC3OC5COC(C)OC5C(O)C3O)C3COC(=O)C23)OCO4)cc(OC)c1O (stereo not given) + Cc1[nH]c2ccc(F)cc2c1-c1nc2c3cccnc3c3ncccc3c2[nH]1 have viability, T/C strictly under 60%?
NOT MET

Does CC1COCCN1c1cc(-c2ccnn2C)c2ccnc(-c3ccn[nH]3)c2n1 (stereo not given) + CN(C)c1ccc(Nc2c3ccc(NC(=O)CCN4CCCC4)cc3nc3cc(NC(=O)CCN4CCCC4)ccc23)cc1 have viability, T/C strictly under 60%?
MET

###

Tested on: K24384-001-R-PDC complex spheroids, viability
Test: Anticancer human tumor K24384-001-R-PDC cell line growth inhibition [GQUAD];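 further: spheroids exposed to compounds for seven days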
Settings: second compound 1 µM; first compound 0.1 µM; stronger effect = lower value
Quick reference for viability, T/C among some molecules
Form entry: value (%) — number only.

Here is how some molecules turned out for viability, T/C.
[[record]]
molecule = "CC(C)(O)C1CCC(Nc2ccc3ncc(-c4cccc(C(F)(F)F)c4)n3n2)CC1 (stereo unspecified) + CN(C)c1ccc(Nc2c3ccc(NC(=O)CCN4CCCC4)cc3nc3cc(NC(=O)CCN4CCCC4)ccc23)cc1"
subject_of_test = "K24384-001-R-PDC complex spheroids, viability"
uom = "%"
test_result = 109

[[record]]
molecule = "CC1COCCN1c1cc(C2(O)CC3CCC(C2)O3)c2cnn(-c3ccn[nH]3)c2n1 (stereo unspecified) + CN(C)c1ccc(Nc2c3ccc(NC(=O)CCN4CCCC4)cc3nc3cc(NC(=O)CCN4CCCC4)ccc23)cc1"
subject_of_test = "K24384-001-R-PDC complex spheroids, viability"
uom = "%"
test_result = 45

[[record]]
molecule = "O=C(NO)c1cnc(N2CCN(S(=O)(=O)c3ccc4ccccc4c3)CC2)nc1 + Cc1cnc(CNC(=O)c2c(=O)c3ccc(N4CCCN(C)CC4)nc3n3c2sc2ccccc23)cn1"
subject_of_test = "K24384-001-R-PDC complex spheroids, viability"
uom = "%"
test_result = 43.9


Look up and state reported viability, T/C for C#Cc1c(F)ccc2cc(O)cc(-c3ncc4c(N5CC6CCC(C5)N6)nc(OCC56CCCN5CC(F)C6)nc4c3F)c12 (stereo unspecified) + CN(C)c1ccc(Nc2c3ccc(NC(=O)CCN4CCCC4)cc3nc3cc(NC(=O)CCN4CCCC4)ccc23)cc1
82.1

Look up and state reported viability, T/C for O=c1[nH]cc(F)c(=O)[nH]1 + Cc1[nH]c2ccc(F)cc2c1-c1nc2c3cccnc3c3ncccc3c2[nH]1
93.1

Look up and state reported viability, T/C for C#Cc1c(F)ccc2cc(O)cc(-c3ncc4c(N5CC6CCC(C5)N6)nc(OCC56CCCN5CC(F)C6)nc4c3F)c12 (stereo unspecified) + Cc1[nH]c2ccc(F)cc2c1-c1nc2c3cccnc3c3ncccc3c2[nH]1
101

Look up and state reported viability, T/C for COc1cc(C2c3cc4c(cc3C(OC3OC5COC(C)OC5C(O)C3O)C3COC(=O)C23)OCO4)cc(OC)c1O (stereo unspecified) + Cc1[nH]c2ccc(F)cc2c1-c1nc2c3cccnc3c3ncccc3c2[nH]1
80.7

Look up and state reported viability, T/C for CCCS(=O)(=O)Nc1ccc(F)c(C(=O)c2c[nH]c3ncc(-c4ccc(Cl)cc4)cc23)c1F + Cc1[nH]c2ccc(F)cc2c1-c1nc2c3cccnc3c3ncccc3c2[nH]1
109

###

Tested on: K24384-001-R-PDC complex spheroids, viability
Test: Anticancer human tumor K24384-001-R-PDC cell line growth inhibition [GQUAD];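 further: spheroids exposed to compounds for seven days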
Conditions: second compound 1 µM; first compound 0.1 µM; stronger effect = lower value
Mark Fulfilled for viability, T/C under 60%, Not fulfilled if at or over.

Illustrative cases are given below, each with its answer.
[[record]]
compound = "CCCS(=O)(=O)Nc1ccc(F)c(C(=O)c2c[nH]c3ncc(-c4ccc(Cl)cc4)cc23)c1F + Cc1cnc(CNC(=O)c2c(=O)c3ccc(N4CCCN(C)CC4)nc3n3c2sc2ccccc23)cn1"
subject_of_test = "K24384-001-R-PDC complex spheroids, viability"
answer_label = "Fulfilled"

[[record]]
compound = "CC(C)n1c(=O)n(C)c2cnc3cc(F)c(-c4ccc(OCCCN5CCCCC5)nc4)cc3c21 + Cc1cnc(CNC(=O)c2c(=O)c3ccc(N4CCCN(C)CC4)nc3n3c2sc2ccccc23)cn1"
subject_of_test = "K24384-001-R-PDC complex spheroids, viability"
answer_label = "Fulfilled"

[[record]]
compound = "Cc1cccc(N(C)C(=O)C2C(O)CCN2c2nc(C)cc(C(F)(F)F)c2C#N)c1 (stereo not given) + Cc1[nH]c2ccc(F)cc2c1-c1nc2c3cccnc3c3ncccc3c2[nH]1"
subject_of_test = "K24384-001-R-PDC complex spheroids, viability"
answer_label = "Not fulfilled"


Consider the record given below.
Does CC1COCCN1c1cc(-c2ccnn2C)c2ccnc(-c3ccn[nH]3)c2n1 (stereo not given) + Cc1[nH]c2ccc(F)cc2c1-c1nc2c3cccnc3c3ncccc3c2[nH]1 have viability, T/C strictly under 60%?
Not fulfilled
